molecular target: DA receptors in the brain (Rattus norvegicus, UniProt P61169); construct: from tissue; host or cells: brain of live male Sprague-Dawley rats (in vivo behavioural test); assay: Block of apomorphine-induced stereotypies in the rat (0-3 scale); assay type: in vivo, Male Sprague-Dawley rats; settings: po, rat; read-out: potency to block apomorphine, ED50 Stereotypies
Sequence (P61169 whole entry): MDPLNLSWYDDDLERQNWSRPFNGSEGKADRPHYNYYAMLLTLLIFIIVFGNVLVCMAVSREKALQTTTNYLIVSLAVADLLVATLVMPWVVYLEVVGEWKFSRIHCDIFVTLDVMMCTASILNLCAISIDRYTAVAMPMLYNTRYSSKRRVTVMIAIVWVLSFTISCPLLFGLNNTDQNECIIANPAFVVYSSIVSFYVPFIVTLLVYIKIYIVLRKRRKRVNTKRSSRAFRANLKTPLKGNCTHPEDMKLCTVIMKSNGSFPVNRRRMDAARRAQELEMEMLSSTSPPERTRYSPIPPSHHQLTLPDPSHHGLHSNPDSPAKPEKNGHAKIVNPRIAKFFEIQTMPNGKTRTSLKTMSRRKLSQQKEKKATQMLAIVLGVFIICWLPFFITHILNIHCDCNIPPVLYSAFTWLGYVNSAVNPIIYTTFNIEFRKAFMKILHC
recordedEndpoint: ED50 (µmol/kg)
Value expressed in µmol/kg; do not type the unit.

Example results:
# compound, ED50 (µmol/kg)
measured = [
    ("CCN1CCCC1CNC(=O)c1c(O)c(Br)cc(Br)c1OC (single isomer, unassigned) [FLA 659 (-)]", 12),
    ("CCN1CCCC1CNC(=O)c1c(OC)ccc(Cl)c1O (single isomer, unassigned) [FLA 814 (-)]", 25),
    ("CCN1CCCC1CNC(=O)c1c(OC)ccc(Br)c1O (single isomer, unassigned) [FLA 797 (-)]", 22),
]

Turning now to a further compound:
The value of ED50 measured for the compound CCOc1ccc(Br)c(O)c1C(=O)NCC1CCCN1CC (single isomer, unassigned) [901(-)] turned out to be 34
